- measured_target: AgAbp1
- procedure_details: SPOT peptide array binding signal intensity (averaged, normalized) (arbitrary units (background-subtracted, floor 0; scale differs between SH3 domains)); higher = stronger binding of the SH3 domain to the peptide
Exercise: state measured SPOT peptide array binding signal intensity for each of the binders provided.
Could you keep your reply to the number by itself?

Answer with reported SPOT peptide array binding signal intensity of `FIRKRAPTPPAPSRS`
948

Please report the measured SPOT peptide array binding signal intensity for `VSKLRSPNTPRRLRK`
210

Indicate its recorded SPOT peptide array binding signal intensity; the binder in question is `PLRRTVMSLPGNHDI`
206

Respond only with SPOT peptide array binding signal intensity recorded for `SKIRPTPRKPSRMAT`
1550

Provide SPOT peptide array binding signal intensity value for the following binder: `TPRLSLPRLPNKHHW`
88

State its SPOT peptide array binding signal intensity: `DHPKGPPPPPPPDEK`
9
